# credit: the supplement of paper PMC7125110

B1: glmS ribozyme (parent)
chain: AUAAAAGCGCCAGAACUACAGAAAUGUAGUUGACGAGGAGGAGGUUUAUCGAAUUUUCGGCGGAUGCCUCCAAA

variants of: B1; assay: self-cleavage kobs at 160 uM GlcN6P; higher = faster cleavage; RNA array; conditions: with glucosamine-6-phosphate
Fewer inactive variants are shown than the library holds.
MEASURED_ENDPOINT: self-cleavage kobs at 160 uM GlcN6P

Reported self-cleavage kobs at 160 uM GlcN6P of C70U C71A : 5.23e-05 s⁻¹

Reported self-cleavage kobs at 160 uM GlcN6P of A14U U31G A39C : 5.41e-05 s⁻¹

Reported self-cleavage kobs at 160 uM GlcN6P of A33C G43C : < 1e-05 s⁻¹

Reported self-cleavage kobs at 160 uM GlcN6P of G32C U49C : < 1e-05 s⁻¹

Reported self-cleavage kobs at 160 uM GlcN6P of G38C G59C C67G : < 1e-05 s⁻¹

Reported self-cleavage kobs at 160 uM GlcN6P of G40U U45A : 0.000265 s⁻¹

Reported self-cleavage kobs at 160 uM GlcN6P of A6G A15C U45A G59A : < 1e-05 s⁻¹

Reported self-cleavage kobs at 160 uM GlcN6P of A12C C50G : 0.000244 s⁻¹

Reported self-cleavage kobs at 160 uM GlcN6P of A6U G43U : < 1e-05 s⁻¹

Reported self-cleavage kobs at 160 uM GlcN6P of G37A G51A C71A : < 1e-05 s⁻¹

Reported self-cleavage kobs at 160 uM GlcN6P of G41A G44A : < 1e-05 s⁻¹
